B1: LINE1-mini (parent)
chain: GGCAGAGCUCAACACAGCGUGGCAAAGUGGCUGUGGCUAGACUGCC

Variants of: B1
Assay: self-cleavage, relative activity (ratio to wild type); higher = more cleavage; in vitro, sequencing; the parent is a self-cleaving ribozyme

- item sequence: "GGCAGGGCUCAACACAUCGUGGCAAAGUGGCUGUGGCUAGACUGCC [A6G G17U]"
  self-cleavage: 0.04
- item sequence: "GGCAGACCUCAACACAGCGUGGCAAAGUGGCUGUGGCUAGGCUGCC [G7C A41G]"
  self-cleavage: 0.04
- item sequence: "GGAAGAGCUCAACACAGCGUGGCAAAGUGGCUGUGGAUAGACUGCC [C3A C37A]"
  self-cleavage: 0.35
- item sequence: "GGCAGAGCUCAACACAGCGUGGGAAAGUGGCUGUGGCUAGACUGCU [C23G C46U]"
  self-cleavage: 1
- item sequence: "GGCAGAGCUCAACACAGCUUGGCAAAGUUGCUGUGGCUAGACUGCC [G19U G29U]"
  self-cleavage: 0.8
- item sequence: "GGCAGAGCUCAACACAGCGUGUGAAAGUGGCUGUGGCUAGACUGCC [G22U C23G]"
  self-cleavage: 2.27
- item sequence: "GGCAGAGCUCAACACAGCGUGGCAAAGUUGCUGUGGCUAGACUGGC [G29U C45G]"
  self-cleavage: 0.78
- item sequence: "GGCAGAGCUCAACACAGUGUGGCAAAGUGGCAGUGGCUAGACUGCC [C18U U32A]"
  self-cleavage: 0.04
- item sequence: "GGCAGAGCUCAACACACCGUCGCAAAGUGGCUGUGGCUAGACUGCC [G17C G21C]"
  self-cleavage: 0.61
- item sequence: "GGCAGAACGCAACACAGCGUGGCAAAGUGGCUGUGGCUAGACUGCC [G7A U9G]"
  self-cleavage: 0.08
- item sequence: "GGCAGAACUCAACACAGCGUGGCAAAGUGGCUCUGGCUAGACUGCC [G7A G33C]"
  self-cleavage: 0.12
- item sequence: "GGCAGAGCUCAACACAGCGUGGCAAAGUGGCUGUGGCUCGACUGCC [A39C]"
  self-cleavage: 0.26
- item sequence: "GGCAAAGCUCAACGCAGCGUGGCAAAGUGGCUGUGGCUAGACUGCC [G5A A14G]"
  self-cleavage: 0.13
- item sequence: "GGCAGAGCUCAACACUGCGUGGCAAAGUUGCUGUGGCUAGACUGCC [A16U G29U]"
  self-cleavage: 0.39
- item sequence: "GGCAGAGCUCAACACAGCGUGGAAAAGUGGCUGUGGCUAGAUUGCC [C23A C42U]"
  self-cleavage: 0.52
- item sequence: "GGCAGAGCUCAACACAGCGUGGCAAAGGCGCUGUGGCUAGACUGCC [U28G G29C]"
  self-cleavage: 0.53
- item sequence: "GGGAGAGCUCAACACAGCGUGGCAAAGUGGCUGUGGCUAGCCUGCC [C3G A41C]"
  self-cleavage: 0.1
